Target Desc: Alpha-synuclein (Homo sapiens)
Procedure Text: Inhibition of alpha-Synuclein (unknown origin) aggregation assessed as aggregation by measuring ThT fluorescence at 100 uM incubated for 5 days by ThT fluorescence assay (reference value: 100%)
Design: scale not given: the % may be the effect or the level left
Details: time 5.0 day
I'd appreciate it if you could supply Activity values for the items below.
Please give the number followed by its unit.

**Query** Param item = `Cc1c(C)c2cc(O)c(O)cc2c2cc(O)c(O)cc12` ; retrieve measured Activity.
**Result** 47.3%

**Query** Param item = `Oc1cc2c(cc1O)-c1c(ccc(O)c1O)CC2` ; retrieve measured Activity.
**Result** 27.8%

**Query** Param item = `Oc1ccc(CCc2ccc(O)c(O)c2)cc1O` ; retrieve measured Activity.
**Result** 35.6%
